Data provenance: PubChem BioAssay (NCI)

Each record here notes measured growth inhibition.
assay: NCI Yeast Anticancer Drug Screen. Data for the rad50 strain (AID 155);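 also: 0% = growth of vehicle-only cultures of the same strain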; details: S. cerevisiae rad50 strain growth inhibition; at 50.0 µM; stronger effect = higher value
Compounds without any hit were thinned out: in the full panel of roughly 79,000, 15% have a hit.
Give the quantity in %, number only.

Reference set (5 entries):
{"columns": ["molecule", "growth inhibition / %"],
 "data": [
  ["CC1=CC2=C(C(N)=O)C(=O)OC2(C)C(c2ccccc2)C1 (configuration not stated)", -19.9],
  ["NC(Cc1cc(I)c(Oc2ccc(O)c(I)c2)c(I)c1)C(=O)O (configuration not stated)", -5.1],
  ["COc1c(-c2cccs2)oc2c(CC(=O)O)cccc2c1=O", 10.9],
  ["CCOC(=O)NCC(C)(C)N(C(=O)OCC)c1ccccc1", -24.1],
  ["COc1cccc2cc(C(=O)Nc3ccccc3)c(=N)oc12", 2.75]
]}

Data request: For the molecule shown here, CC(C)c1ccccc1[S+]1OC(C)(C)c2ccccc21 (configuration not stated) , give the reported growth inhibition.
Data returned: -4.9
